Where do these numbers come from? They come from patent US6472348B1.

Test system: corn (Ze)
Test: Test Example 11: crop plant selectivity by upland field foliage treatment (corn), phytotoxicity
Details: upland field foliage treatment, dose 1.6 g ai/10a, 14th day after treatment
// reported Phytotoxicity Ze per item
Format: numeric value only, no unit, no commentary.

Reference set (5 entries):
compound	test target	Phytotoxicity Ze
C#CC(C)Oc1cc(Cl)cc(F)c1-c1ccc(C(F)(F)F)n(C)c1=O (stereo not drawn) [1′-5]	corn (Ze)	1
CCOC(=O)CON=Cc1cc(-c2ccc(C(F)(F)F)n(C)c2=O)c(F)cc1Cl [Compound 1-191]	corn (Ze)	2
Cn1c(C(F)(F)F)ccc(-c2cc(OCC#N)c(Cl)cc2F)c1=O [1-25]	corn (Ze)	2
CCOC(=O)c1cc(-c2ccc(C(F)(F)F)n(C)c2=O)c(F)cc1Cl [1-65]	corn (Ze)	2
CON=Cc1cc(-c2ccc(C(F)(F)F)n(C)c2=O)c(F)cc1Cl [Compound No. 1-72]	corn (Ze)	2

-- ask Can you share its Phytotoxicity Ze? I mean this compound: COCOCc1cc(-c2ccc(C(F)(F)F)n(C)c2=O)c(F)cc1Cl [Compound 1-200]
-- reply 2

-- ask Can you share its Phytotoxicity Ze? I mean this compound: Cn1c(C(F)(F)F)ccc(-c2cc(C#N)c(Cl)cc2F)c1=O [Compound No. 1-119]
-- reply 2

-- ask May I ask what Phytotoxicity Ze has been recorded for CCCOCc1cc2c(-c3ccc(C(F)(F)F)n(C)c3=O)c(F)cc(Cl)c2o1 [Compound 4-32] ?
-- reply 2

-- ask If you can, please state the reported Phytotoxicity Ze value of Cn1c(C(F)(F)F)ccc(-c2cc(C(=O)OCCBr)c(Cl)cc2F)c1=O [1-134] .
-- reply 2

-- ask What value of measured Phytotoxicity Ze is listed for C#CCOc1cc(-c2ccc(C(F)(F)F)n(C)c2=O)ccc1Cl [1-106] ?
-- reply 2

-- ask Which Phytotoxicity Ze reading was recorded for the compound CCON=Cc1cc(-c2ccc(C(F)(F)F)n(C)c2=O)c(F)cc1Cl [Compound 1-187] ?
-- reply 2

-- ask Please give the measured Phytotoxicity Ze for this compound: C#CCOc1cc(-c2ccc(C(F)(F)F)n(C)c2=O)c(F)cc1Cl [1-18]
-- reply 2

-- ask Suppose we examine the compound C=CC(C)Oc1cc(-c2ccc(C(F)(F)F)n(C)c2=O)c(F)cc1Cl (stereo not drawn) [Compound 1-182] ; what Phytotoxicity Ze value has been reported?
-- reply 1

-- ask Can you look up the measured Phytotoxicity Ze of COCCOc1cc(-c2ccc(C(F)(F)F)n(C)c2=O)c(F)cc1Cl [1-170] for me?
-- reply 0

-- ask I am curious: what Phytotoxicity Ze value has been reported for C#CC(C)Oc1cc(-c2ccc(C(F)(F)F)n(C)c2=O)c(Cl)cc1Cl (stereo not drawn) [1-31] ?
-- reply 2

-- ask May I ask what Phytotoxicity Ze has been recorded for Cn1c(C(F)(F)F)ccc(-c2cc(COC3CCCC3)c(Cl)cc2F)c1=O [Compound 1-201] ?
-- reply 2

-- ask Need Phytotoxicity Ze of CCC(=O)c1cc(-c2ccc(C(F)(F)F)n(C)c2=O)c(F)cc1Cl [1-69] , thanks.
-- reply 2

-- ask # Phytotoxicity Ze lookup, item C=CCN1C(=O)COc2cc(Cl)c(-c3ccc(C(F)(F)F)n(C)c3=O)cc21 [Compound 2-26]
-- reply 2
